molecular target: EGFR L858R mutant type (Homo sapiens (Human), UniProt P00533, L858R); test: Kinase inhibitory activity, isotopic labeling (γ-33P-ATP); assay type: biochemical; conditions: ATP 200 μM (Km)
Sequence (P00533 25-1210 L858R): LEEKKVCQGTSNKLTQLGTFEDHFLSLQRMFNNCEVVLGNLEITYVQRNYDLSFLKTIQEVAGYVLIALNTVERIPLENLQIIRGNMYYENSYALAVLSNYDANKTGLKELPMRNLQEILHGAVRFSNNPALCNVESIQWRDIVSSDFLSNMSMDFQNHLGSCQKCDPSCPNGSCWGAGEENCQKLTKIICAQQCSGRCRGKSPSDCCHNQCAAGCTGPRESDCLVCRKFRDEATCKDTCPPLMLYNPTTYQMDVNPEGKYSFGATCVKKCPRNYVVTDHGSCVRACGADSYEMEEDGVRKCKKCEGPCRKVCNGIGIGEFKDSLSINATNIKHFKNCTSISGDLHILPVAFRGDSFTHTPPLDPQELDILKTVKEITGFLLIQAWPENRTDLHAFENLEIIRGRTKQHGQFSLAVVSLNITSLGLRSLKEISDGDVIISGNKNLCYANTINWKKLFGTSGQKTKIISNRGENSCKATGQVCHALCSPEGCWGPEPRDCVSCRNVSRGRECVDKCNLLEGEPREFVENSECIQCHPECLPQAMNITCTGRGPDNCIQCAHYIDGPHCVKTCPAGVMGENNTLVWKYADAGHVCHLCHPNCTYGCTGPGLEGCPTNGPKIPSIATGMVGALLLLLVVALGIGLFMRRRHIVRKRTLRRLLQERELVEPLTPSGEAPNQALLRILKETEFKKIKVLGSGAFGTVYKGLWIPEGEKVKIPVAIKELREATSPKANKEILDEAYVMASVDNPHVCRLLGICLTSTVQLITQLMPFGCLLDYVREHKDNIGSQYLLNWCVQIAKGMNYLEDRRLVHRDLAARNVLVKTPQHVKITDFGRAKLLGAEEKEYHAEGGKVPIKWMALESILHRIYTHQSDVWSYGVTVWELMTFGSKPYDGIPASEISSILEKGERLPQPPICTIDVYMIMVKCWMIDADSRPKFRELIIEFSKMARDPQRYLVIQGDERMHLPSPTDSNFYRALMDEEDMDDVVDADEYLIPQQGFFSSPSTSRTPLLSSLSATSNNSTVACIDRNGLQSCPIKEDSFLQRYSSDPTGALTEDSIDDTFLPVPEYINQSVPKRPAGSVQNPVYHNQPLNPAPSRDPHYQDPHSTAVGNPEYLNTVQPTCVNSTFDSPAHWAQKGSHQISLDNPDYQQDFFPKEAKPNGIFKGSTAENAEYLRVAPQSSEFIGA
Field: IC50. Provide a value for each of the compounds that follow.
Just so you know, I need the unit written after the number.

CC(C)n1c(Nc2ccc(NC(=O)Nc3ccc(F)c(Cl)c3)cc2)nc2cnc(Nc3ccc(N4CCN(C)CC4)cc3)nc21 [Compounds 8-21] : 0.005 µM

// input: 3 compounds below; output: IC50 for each
1. CC(C)n1c(NC2CCCCC2)nc2cnc(Nc3ccc(N4CCN(C)CC4)cc3)nc21 [Compounds 8-30]
2. C=CC(=O)Nc1cccc(Nc2ncc3nc(Nc4ccccc4)n(C(C)C)c3n2)c1 [Compounds 8-38]
3. COc1cccc(Nc2nc3cnc(Nc4ccc(N5CCN(C)CC5)cc4)nc3n2C(C)C)c1 [Compounds 8-17]

0.005 µM
0.0006 µM
0.001 µM
